Values from ChEMBL document CHEMBL3885861

- Organism: Rattus norvegicus
- experiment_description: Open TG-GATES - Regimen: Single
- Format: toxicity, organism-based, Sprague-Dawley
- Parameters: regimen Single, gender Male, age 6 weeks
- condition_description: in vivo, po, 100 mg/kg, 3 h, tissue Plasma, route gavage, dose level Low
quantity: BUN (mg/dL)

- chemical_smiles: "Cc1nnc2n1-c1ccc(Cl)cc1C(c1ccccc1Cl)=NC2"
  quantity: "BUN"
  assay_result: 9.4
- chemical_smiles: "CNC(=C[N+](=O)[O-])NCCSCc1ccc(CN(C)C)o1"
  quantity: "BUN"
  assay_result: 11.4
- chemical_smiles: "CN/C(=N/CCSCc1nc[nH]c1C)NC#N"
  quantity: "BUN"
  assay_result: 9.6
- chemical_smiles: "O=C(OC[C@H]1O[C@@H](OC(=O)c2cc(O)c(O)c(OC(=O)c3cc(O)c(O)c(O)c3)c2)[C@H](OC(=O)c2cc(O)c(O)c(OC(=O)c3cc(O)c(O)c(O)c3)c2)[C@@H](OC(=O)c2cc(O)c(O)c(OC(=O)c3cc(O)c(O)c(O)c3)c2)[C@@H]1OC(=O)c1cc(O)c(O)c(OC(=O)c2cc(O)c(O)c(O)c2)c1)c1cc(O)c(O)c(OC(=O)c2cc(O)c(O)c(O)c2)c1"
  quantity: "BUN"
  assay_result: 15.8

====

- Organism: Rattus norvegicus
- experiment_description: Open TG-GATES - Regimen: Daily Repeat
- Format: toxicity, organism-based, Sprague-Dawley
- Set-up: regimen Daily Repeat, gender Male, age 6 weeks
- condition_description: in vivo, po, 0 mg/kg, […], tissue Blood, route gavage, dose level Control, time 14 day
Recorded Lym by entry

- molecule: "CNC(=C[N+](=O)[O-])NCCSCc1ccc(CN(C)C)o1"
  Lym (%): 75.6
- molecule: "Nc1c2c(nc3ccccc13)CCCC2"
  Lym (%): 79.6
- molecule: "CC(C)NNC(=O)c1ccncc1"
  Lym (%): 82.8
- molecule: "CCOc1ccc(NC(C)=O)cc1"
  Lym (%): 75
- molecule: "NC1=NC(=O)C(c2ccccc2)O1 (stereo not drawn)"
  Lym (%): 75.2
- molecule: "COC(=O)C1=C(C)NC(C)=C(C(=O)OC)C1c1ccccc1[N+](=O)[O-]"
  Lym (%): 79.2
- molecule: "CN/C(=N/CCSCc1nc[nH]c1C)NC#N"
  Lym (%): 79.2
- molecule: "Cc1nnc2n1-c1ccc(Cl)cc1C(c1ccccc1Cl)=NC2"
  Lym (%): 74.6
- molecule: "O=C(OC[C@H]1O[C@@H](OC(=O)c2cc(O)c(O)c(OC(=O)c3cc(O)c(O)c(O)c3)c2)[C@H](OC(=O)c2cc(O)c(O)c(OC(=O)c3cc(O)c(O)c(O)c3)c2)[C@@H](OC(=O)c2cc(O)c(O)c(OC(=O)c3cc(O)c(O)c(O)c3)c2)[C@@H]1OC(=O)c1cc(O)c(O)c(OC(=O)c2cc(O)c(O)c(O)c2)c1)c1cc(O)c(O)c(OC(=O)c2cc(O)c(O)c(O)c2)c1"
  Lym (%): 78
- molecule: "Brc1ccccc1"
  Lym (%): 77
- molecule: "CN(C)CCC(c1ccc(Cl)cc1)c1ccccn1 (stereo not drawn)"
  Lym (%): 76.8
- molecule: "CN1C(=O)CCS(=O)(=O)C1c1ccc(Cl)cc1 (stereo not drawn)"
  Lym (%): 76.2
- molecule: "CCCc1cc(=O)[nH]c(=S)[nH]1"
  Lym (%): 80.8
